Ref: patent US11730817B2

# Subject of test: STING (Homo sapiens, UniProt Q86WV6, G230A/H232R/R293Q/R71H)
# Sequence (Q86WV6 whole entry R71H/G230A/H232R/R293Q): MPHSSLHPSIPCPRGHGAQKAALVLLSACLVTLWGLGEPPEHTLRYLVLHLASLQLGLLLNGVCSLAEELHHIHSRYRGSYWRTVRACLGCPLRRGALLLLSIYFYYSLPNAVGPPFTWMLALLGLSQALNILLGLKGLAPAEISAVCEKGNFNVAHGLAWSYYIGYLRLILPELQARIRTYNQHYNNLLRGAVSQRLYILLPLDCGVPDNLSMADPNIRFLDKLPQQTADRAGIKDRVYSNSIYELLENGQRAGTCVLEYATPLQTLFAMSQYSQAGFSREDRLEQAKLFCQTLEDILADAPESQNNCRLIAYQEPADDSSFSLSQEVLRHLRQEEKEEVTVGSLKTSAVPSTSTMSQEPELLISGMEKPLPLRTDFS
# Test name: ISG54 (IRF pathway) reporter assay in THP1-Dual cells
# Conditions used: 10 μM; THP1-Dual cells
Property: Fold ISG induction vs unstimulated @10 μM

{"Compound": "COC(=O)C1O[C@@H](Oc2ccc(CSP3(=O)OC[C@H]4O[C@@H](n5cnc6c(=O)[nH]cnc65)[C@H](F)[C@@H]4OP(=O)(O)OC[C@H]4O[C@@H](n5cnc6c(N)ncnc65)[C@H](F)[C@@H]4O3)cc2NC(=O)CCCCCN2C(=O)C=CC2=O)C(OC(C)=O)C(OC(C)=O)[C@@H]1OC(C)=O (stereo partly shown) [CL847]", "Recorded result": "132 fold"}
{"Compound": "CC(C)[C@H](NC(=O)CCCCCN1C(=O)C=CC1=O)C(=O)N[C@@H](C)C(=O)Nc1ccc(CSP2(=O)OC[C@H]3O[C@@H](n4cnc5c(N)ncnc54)[C@H](F)[C@@H]3OP(=O)(O)OC[C@H]3O[C@@H](n4cnc5c(O)ncnc54)C[C@@H]3O2)cc1 (stereo partly shown) [CL843]", "Recorded result": "16 fold"}
{"Compound": "CC(C)[C@H](NC(=O)[C@@H](CN)N1C(=O)C=CC1=O)C(=O)N[C@@H](C)C(=O)Nc1ccc(CSP2(=O)OC[C@H]3O[C@@H](n4cnc5c(N)ncnc54)[C@H](F)[C@@H]3OP(=O)(S)OC[C@H]3O[C@@H](n4cnc5c(O)ncnc54)[C@H](F)[C@@H]3O2)cc1 (stereo partly shown) [CL874]", "Recorded result": "156 fold"}
{"Compound": "Nc1ncnc2c1ncn2[C@@H]1O[C@@H]2COP(=O)(S)O[C@H]3[C@@H](F)[C@H](n4cnc5c(=O)[nH]cnc54)O[C@@H]3COP(=O)(S)O[C@H]2[C@H]1F (stereo partly shown) [CL656, 3′3′-cAIM(PS)2 Difluor (Rp/Sp)]", "Recorded result": "215 fold"}

* * *

Recorded PdI for the following molecules
# Test name: Lipid-based nanoparticle formation (PdI, Z Ave)
# Assay type: physicochemical
# Conditions used: polydispersity index of lipid BAM-CDN

{"Molecule": "CCCCCCCC(=O)N[C@H](C(=O)N[C@@H](C)C(=O)Nc1ccc(CSP2(=O)OC[C@H]3O[C@@H](n4cnc5c(O)ncnc54)[C@H](F)[C@@H]3OP(=O)(SCc3ccc(NC(=O)[C@H](C)NC(=O)[C@@H](NC(=O)CCCCCCC)C(C)C)cc3)OC[C@H]3O[C@@H](n4cnc5c(N)ncnc54)[C@H](F)[C@@H]3O2)cc1)C(C)C (some centres unmarked)", "PdI": 0.086}
{"Molecule": "CCCCCCCCCCCCCC(=O)OC(CCCCCCCCCCC)CC(=O)N[C@H](C(=O)N[C@@H](CCCNC(N)=O)C(=O)Nc1ccc(CSP2(=O)OC[C@H]3O[C@@H](n4cnc5c(N)ncnc54)[C@H](F)[C@@H]3OP(=O)(S)OC[C@H]3O[C@@H](n4cnc5c(O)ncnc54)[C@H](F)[C@@H]3O2)cc1)C(C)C (some centres unmarked)", "PdI": 0.183}

* * *

# Subject of test: STING (Homo sapiens, UniProt Q86WV6, G230A/H232R/R293Q/R71H)
# Test name: ISG54 (IRF pathway) reporter assay in THP1-Dual cells

{"Compound": "Nc1ncnc2c1ncn2[C@@H]1OC2COP(=O)(S)O[C@@H]3C(COP(=O)(O)O[C@H]2[C@H]1F)O[C@@H](n1cnc2c(=O)[nH]cnc21)[C@@H]3F (stereo partly drawn) [CL845, reference compound]", "EC50 [µM]": 4.57}
{"Compound": "Nc1ncnc2c1ncn2[C@@H]1O[C@@H]2COP(=O)(S)O[C@H]3C[C@H](n4cnc5c(=O)[nH]cnc54)O[C@@H]3COP(=O)(O)O[C@H]2[C@H]1F (stereo partly drawn) [CL797, reference compound]", "EC50 [µM]": 8.15}
{"Compound": "Nc1ncnc2c1ncn2[C@@H]1O[C@@H]2COP(=O)(S)O[C@H]3[C@@H](F)[C@H](n4cnc5c(=O)[nH]cnc54)O[C@@H]3COP(=O)(S)O[C@H]2[C@H]1F (stereo partly drawn) [CL656, 3′3′-cAIM(PS)2 Difluor (Rp/Sp)]", "EC50 [µM]": 1}

* * *

# Test name: Lipid-based nanoparticle formation (PdI, Z Ave)
# Format: physicochemical
# Conditions used: polydispersity index of lipid BAM-CDN
Under this convention, t denotes PdI strictly below 0.2 and f denotes PdI at or above 0.2.

{"Molecule": "CCCCCCCCCCCCCCCC(=O)N[C@H](C(=O)N[C@@H](C)C(=O)Nc1ccc(CSP2(=O)OC[C@H]3O[C@@H](n4cnc5c(N)ncnc54)[C@H](F)[C@@H]3OP(=O)(O)OC[C@H]3O[C@@H](n4cnc5c(O)ncnc54)[C@H](F)[C@@H]3O2)cc1)C(C)C (stereo partly drawn)", "Class": "f"}
{"Molecule": "CCCCCCCCCCCCCCCC(=O)N[C@H](C(=O)N[C@@H](C)C(=O)Nc1ccc(CSP2(=O)OC[C@H]3O[C@@H](n4cnc5c(N)ncnc54)[C@H](F)[C@@H]3OP(=O)(S)OC[C@H]3O[C@@H](n4cnc5c(O)ncnc54)[C@H](F)[C@@H]3O2)cc1)C(C)C (stereo partly drawn)", "Class": "f"}
{"Molecule": "CCCCCCCC(=O)N[C@H](C(=O)N[C@@H](C)C(=O)Nc1ccc(CSP2(=O)OC[C@H]3O[C@@H](n4cnc5c(N)ncnc54)[C@H](F)[C@@H]3OP(=O)(O)OC[C@H]3O[C@@H](n4cnc5c(O)ncnc54)[C@H](F)[C@@H]3O2)cc1)C(C)C (stereo partly drawn)", "Class": "f"}
{"Molecule": "CCCCCCCCCCCCCC(=O)OC(CCCCCCCCCCC)CC(=O)N[C@H](C(=O)N[C@@H](CCCNC(N)=O)C(=O)Nc1ccc(CSP2(=O)OC[C@H]3O[C@@H](n4cnc5c(N)ncnc54)[C@H](F)[C@@H]3OP(=O)(O)OC[C@H]3O[C@@H](n4cnc5c(O)ncnc54)[C@H](F)[C@@H]3O2)cc1)C(C)C (stereo partly drawn)", "Class": "f"}
{"Molecule": "CCCCCCCCCCCCCCCC(=O)N[C@H](C(=O)N[C@@H](CCCNC(N)=O)C(=O)Nc1ccc(CSP2(=O)OC[C@H]3O[C@@H](n4cnc5c(N)ncnc54)[C@H](F)[C@@H]3OP(=O)(O)OC[C@H]3O[C@@H](n4cnc5c(O)ncnc54)C[C@@H]3O2)cc1)C(C)C (stereo partly drawn)", "Class": "t"}
{"Molecule": "CCCCCCCC(=O)N[C@H](C(=O)N[C@@H](C)C(=O)Nc1ccc(CSP2(=O)OC[C@H]3O[C@@H](n4cnc5c(N)ncnc54)[C@H](F)[C@@H]3OP(=O)(O)OC[C@H]3O[C@@H](n4cnc5c(O)ncnc54)C[C@@H]3O2)cc1)C(C)C (stereo partly drawn)", "Class": "f"}
{"Molecule": "CCCCCCCCCCCCCC(=O)OC(CCCCCCCCCCC)CC(=O)N[C@H](C(=O)N[C@@H](C)C(=O)Nc1ccc(CSP2(=O)OC[C@H]3O[C@@H](n4cnc5c(N)ncnc54)[C@H](F)[C@@H]3OP(=O)(O)OC[C@H]3O[C@@H](n4cnc5c(O)ncnc54)C[C@@H]3O2)cc1)C(C)C (stereo partly drawn)", "Class": "f"}
{"Molecule": "CCCCCCCC(=O)N[C@H](C(=O)N[C@@H](C)C(=O)Nc1ccc(CSP2(=O)OC[C@H]3O[C@@H](n4cnc5c(N)ncnc54)[C@H](F)[C@@H]3OP(=O)(S)OC[C@H]3O[C@@H](n4cnc5c(O)ncnc54)[C@H](F)[C@@H]3O2)cc1)C(C)C (stereo partly drawn)", "Class": "t"}
{"Molecule": "CCCCCCCCCCCCCCCC(=O)N[C@H](C(=O)N[C@@H](CCCNC(N)=O)C(=O)Nc1ccc(CSP2(=O)OC[C@H]3O[C@@H](n4cnc5c(N)ncnc54)[C@H](F)[C@@H]3OP(=O)(S)OC[C@H]3O[C@@H](n4cnc5c(O)ncnc54)[C@H](F)[C@@H]3O2)cc1)C(C)C (stereo partly drawn)", "Class": "t"}

* * *

EC50 overview
# Tested on: Type I IFNs
# Test name: Whole-blood assay, type I IFN induction (HEK-Blue IFN-α/β-KO-STING readout)
# Type: cell-based, human
# Conditions used: whole blood assay, type I IFN; read-out: EC50 (μM) IFN in WBA

{"Compound": "CCCCCCCC(=O)N[C@H](C(=O)N[C@@H](C)C(=O)Nc1ccc(CSP2(=O)OC[C@H]3O[C@@H](n4cnc5c(N)ncnc54)[C@H](F)[C@@H]3OP(=O)(S)OC[C@H]3O[C@@H](n4cnc5c(O)ncnc54)[C@H](F)[C@@H]3O2)cc1)C(C)C (stereo partly shown)", "Subject of test": "Type I IFNs", "EC50 / µM": 0.13}
{"Compound": "CCCCCCCCCCCCCCCC(=O)N[C@H](C(=O)N[C@@H](C)C(=O)Nc1ccc(CSP2(=O)OC[C@H]3O[C@@H](n4cnc5c(N)ncnc54)[C@H](F)[C@@H]3OP(=O)(S)OC[C@H]3O[C@@H](n4cnc5c(O)ncnc54)[C@H](F)[C@@H]3O2)cc1)C(C)C (stereo partly shown)", "Subject of test": "Type I IFNs", "EC50 / µM": 0.15}
{"Compound": "CCCCCCCCCCCCCC(=O)OC(CCCCCCCCCCC)CC(=O)N[C@H](C(=O)N[C@@H](C)C(=O)Nc1ccc(CSP2(=O)OC[C@H]3O[C@@H](n4cnc5c(N)ncnc54)[C@H](F)[C@@H]3OP(=O)(O)OC[C@H]3O[C@@H](n4cnc5c(O)ncnc54)C[C@@H]3O2)cc1)C(C)C (stereo partly shown)", "Subject of test": "Type I IFNs", "EC50 / µM": 0.009}
{"Compound": "CCCCCCCCCCCCCCCC(=O)N[C@H](C(=O)N[C@@H](CCCNC(N)=O)C(=O)Nc1ccc(CSP2(=O)OC[C@H]3O[C@@H](n4cnc5c(N)ncnc54)[C@H](F)[C@@H]3OP(=O)(O)OC[C@H]3O[C@@H](n4cnc5c(O)ncnc54)C[C@@H]3O2)cc1)C(C)C (stereo partly shown)", "Subject of test": "Type I IFNs", "EC50 / µM": 0.11}
